These measurements were taken from ChEMBL document CHEMBL1155271.

Reported values of MIC for individual entries
# Tested on: Staphylococcus aureus
# method: Antimicrobial activity against Methicillin susceptible Staphylococcus aureus 239/7 by twofold dilution technique
# Type: functional

{"columns": ["compound", "MIC / µg/mL"],
 "data": [
  ["COCCN/N=C/c1c(O)c(O)c(C(C)C)c2cc(C)c(-c3c(C)cc4c(C(C)C)c(O)c(O)c(/C=N/NCCOC)c4c3O)c(O)c12", 100],
  ["Cc1cc2c(C(C)C)c(O)c(O)c(/C=N/N3CCN(CCO)CC3)c2c(O)c1-c1c(C)cc2c(C(C)C)c(O)c(O)c(/C=N/N3CCN(CCO)CC3)c2c1O", 25],
  ["Cc1cc2c(c(O)c1-c1c(C)cc3c(c1O)/C(=C/NCCc1cccs1)C(=O)C(O)=C3C(C)C)/C(=C/NCCc1cccs1)C(=O)C(O)=C2C(C)C", 50],
  ["Cc1cc2c(c(O)c1-c1c(C)cc3c(c1O)/C(=C/NCC1COCCOCCOCCOCCOCCO1)C(=O)C(O)=C3C(C)C)/C(=C/NCC1COCCOCCOCCOCCOCCO1)C(=O)C(O)=C2C(C)C (stereo unspecified)", 100],
  ["Cc1cc2c(c(O)c1-c1c(C)cc3c(c1O)/C(=C/NCCC(=O)N[C@@H](Cc1c[nH]cn1)C(=O)O)C(=O)C(O)=C3C(C)C)/C(=C/NCCC(=O)N[C@@H](Cc1c[nH]cn1)C(=O)O)C(=O)C(O)=C2C(C)C", 100],
  ["O=C(O)c1cn(C2CC2)c2cc(N3CCNCC3)c(F)cc2c1=O [CIPROFLOXACIN]", 0.5]
]}
